Target: UniProtKB O00748
Sequence (O00748 27-559): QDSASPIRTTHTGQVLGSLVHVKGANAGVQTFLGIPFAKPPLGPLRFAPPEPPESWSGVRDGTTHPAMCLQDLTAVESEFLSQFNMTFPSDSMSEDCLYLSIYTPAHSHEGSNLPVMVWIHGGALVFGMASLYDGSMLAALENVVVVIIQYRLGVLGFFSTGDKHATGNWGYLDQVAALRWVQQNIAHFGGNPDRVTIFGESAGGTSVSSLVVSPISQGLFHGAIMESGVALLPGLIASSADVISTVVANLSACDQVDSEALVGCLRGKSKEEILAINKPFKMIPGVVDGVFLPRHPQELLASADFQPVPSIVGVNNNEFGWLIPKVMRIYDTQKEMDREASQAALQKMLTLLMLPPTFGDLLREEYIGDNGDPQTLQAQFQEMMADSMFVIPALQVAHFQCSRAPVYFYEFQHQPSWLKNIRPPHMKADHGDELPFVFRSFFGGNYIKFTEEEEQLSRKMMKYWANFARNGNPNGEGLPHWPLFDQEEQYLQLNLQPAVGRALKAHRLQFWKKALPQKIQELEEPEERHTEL
Assay: hCES2A inhibition assay
Type: biochemical
Measured IC50 of individual entries
Express your answer as a number followed by its unit.

Looking up COc1cc2c(cc1OC)C(=O)/C(=C/c1ccc(F)cc1)C2 , I found its IC50 recorded as 20.9 µM

Looking up COc1cc2c(cc1OC)C(=O)/C(=C/c1cccc(OC)c1O)C2 , I found its IC50 recorded as 0.4 µM

Looking up COc1cccc(/C=C2\Cc3cc(OC)c(OC)cc3C2=O)c1 , I found its IC50 recorded as 64.8 µM

Looking up COc1ccc(/C=C2\Cc3cc(OC)c(OC)cc3C2=O)cc1 , I found its IC50 recorded as 17.9 µM

Looking up COc1cc2c(cc1OC)C(=O)/C(=C/c1c(O)cccc1Br)C2 , I found its IC50 recorded as 0.29 µM

====

Molecular target: UniProt:O00748
Test: hCES2A inhibition assay
Type: biochemical
reported property: pIC50
Scale: negative log10 of molar concentration, which is what pIC50 denotes.

compound | assay target | pIC50
COc1cc2c(cc1OC)C(=O)C(CC1CCN(Cc3ccccc3)CC1)C2 (stereo not shown) [Donepezil, reference compound] | UniProt:O00748 | 5.41
COc1ccccc1/C=C1\Cc2cc(OC)c(OC)cc2C1=O [Compound B4] | UniProt:O00748 | 5.26
COc1cc2c(cc1OC)C(=O)/C(=C/c1ccccc1F)C2 [Compound B3] | UniProt:O00748 | 5.53

Log: UniProt:O00748, compound COc1cc2c(cc1OC)C(=O)/C(=C/c1ccccc1Cl)C2 [Compound B2] , pIC50 = 4.92
